# test-target: APJ (Homo sapiens)
# Construct: expressed in transfected cells; host or cells: CHO (CHO-A10; clone 6 for the cAMP assay)
# Sequence (P35414 whole entry): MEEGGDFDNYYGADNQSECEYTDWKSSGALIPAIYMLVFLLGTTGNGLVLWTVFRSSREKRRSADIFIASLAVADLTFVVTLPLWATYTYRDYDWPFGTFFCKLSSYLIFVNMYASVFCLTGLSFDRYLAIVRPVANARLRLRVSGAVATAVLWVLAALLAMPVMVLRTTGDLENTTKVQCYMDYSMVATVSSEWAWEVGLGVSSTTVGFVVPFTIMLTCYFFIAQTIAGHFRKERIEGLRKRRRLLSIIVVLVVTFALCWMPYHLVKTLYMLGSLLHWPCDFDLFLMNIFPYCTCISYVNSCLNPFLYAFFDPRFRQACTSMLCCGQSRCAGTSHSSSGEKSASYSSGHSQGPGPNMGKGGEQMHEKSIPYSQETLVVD
# protocol-notes: Receptor binding assay-2 (compound in Reference Example 2 used)
# condition-summary: compound in Reference Example 2 used as ligand; read-out: IC50
Non-standard residues stand in square brackets, D forms with d. Residues, ends and D or L forms follow the SMILES beside them. Phe(4-Cl) = N[C@@H](Cc1ccc(Cl)cc1)C(=O)O; Cha = N[C@@H](CC1CCCCC1)C(=O)O

- molecule: "CC(C)C[C@H](NC(=O)[C@H](C)NC(=O)[C@@H]1CCCN1C(=O)[C@@H](N)CCCNC(=N)N)C(=O)N[C@@H](CO)C(=O)N[C@@H](Cc1c[nH]cn1)C(=O)N[C@@H](CCCCN)C(=O)NCC(=O)N1CCC[C@H]1C(=O)N[C@@H](CC1CCCCC1)C(=O)N1CCC[C@H]1C(=O)N[C@@H](Cc1ccc(Cl)cc1)C(=O)O [Compound in Ex. 58] (H-RPALSHKGP[Cha]P[Phe(4-Cl)]-OH; N-terminus and C-terminus assumed)"
  test-target: "APJ (Homo sapiens)"
  IC50 (nM): 0.15
- molecule: "CSCC[C@H](NC(=O)CNC(=O)CNC(=O)[C@H](CCCNC(=N)N)NC(=O)[C@H](C)NC(=O)[C@H](CO)NC(=O)[C@H](CC(C)C)NC(=O)[C@H](CCCNC(=N)N)NC(=O)[C@@H]1CCCN1C(=O)[C@@H](N)CCCNC(=N)N)C(=O)N1CCC[C@H]1C(=O)N[C@@H](Cc1ccc(Cl)cc1)C(=O)O [Compound in Ex. 54] (H-RPRLSARGGMP[Phe(4-Cl)]-OH; N-terminus and C-terminus assumed)"
  test-target: "APJ (Homo sapiens)"
  IC50 (nM): 0.29
